# test-method-notes: Protein binding in human plasma assessed as free fraction at 10 uM incubated for 4 hrs by rapid equilibrium dialysis based LC-MS/MS method
# Type: ADME, cell-free
assay-metric: fraction unbound at 4 h, 10 µM
Numbers only.

Entry Cc1[nH]c(C(=O)Nc2nc3c(OC(C)CN(C)C)cc(C(=O)O)cc3s2)c(Cl)c1Cl (stereo unspecified) ; fraction unbound at 4 h, 10 µM = 0.029

* * *

# Test system: Pseudomonas aeruginosa
# test-method-notes: Antibacterial activity against Pseudomonas aeruginosa ATCC 27853 incubated for 18 hrs by serial broth microdilution method
# Type: functional
assay-metric: MIC90

>>> result("Cc1[nH]c(C(=O)Nc2nc3c(OC4CCNC4)cc(C(=O)O)cc3s2)c(Cl)c1Cl (stereo unspecified)")
"> 130 µM"
>>> result("Cc1[nH]c(C(=O)Nc2nc3c(OC(CN(C)C)c4ccccc4)cc(C(=O)O)cc3s2)cc1F (stereo unspecified)")
"33 µM"
>>> result("Cc1[nH]c(C(=O)Nc2nc3c(OC(C)CN(C)C)cc(C(=O)O)cc3s2)c(Cl)c1Cl (stereo unspecified)")
"> 135 µM"
>>> result("Cc1[nH]c(C(=O)Nc2nc3c(OC(CN4CCN(C)CC4)C4CC4)cc(C(=O)O)cc3s2)c(Cl)c1Cl (stereo unspecified)")
"> 116 µM"
>>> result("Cc1[nH]c(C(=O)Nc2nc3c(OC(C)C4CCNCC4)cc(C(=O)O)cc3s2)c(Cl)c1Cl (stereo unspecified)")
"> 120 µM"

Note to self: MIC90 of Cc1[nH]c(C(=O)Nc2nc3c(OC(CN4CCOCC4)C4CC4)cc(C(=O)O)cc3s2)cc1F (stereo unspecified) with Pseudomonas aeruginosa was > 131 µM

* * *

# measured-target: hERG (KCNH2) (Homo sapiens, UniProt Q12809)
# Sequence (Q12809 whole entry): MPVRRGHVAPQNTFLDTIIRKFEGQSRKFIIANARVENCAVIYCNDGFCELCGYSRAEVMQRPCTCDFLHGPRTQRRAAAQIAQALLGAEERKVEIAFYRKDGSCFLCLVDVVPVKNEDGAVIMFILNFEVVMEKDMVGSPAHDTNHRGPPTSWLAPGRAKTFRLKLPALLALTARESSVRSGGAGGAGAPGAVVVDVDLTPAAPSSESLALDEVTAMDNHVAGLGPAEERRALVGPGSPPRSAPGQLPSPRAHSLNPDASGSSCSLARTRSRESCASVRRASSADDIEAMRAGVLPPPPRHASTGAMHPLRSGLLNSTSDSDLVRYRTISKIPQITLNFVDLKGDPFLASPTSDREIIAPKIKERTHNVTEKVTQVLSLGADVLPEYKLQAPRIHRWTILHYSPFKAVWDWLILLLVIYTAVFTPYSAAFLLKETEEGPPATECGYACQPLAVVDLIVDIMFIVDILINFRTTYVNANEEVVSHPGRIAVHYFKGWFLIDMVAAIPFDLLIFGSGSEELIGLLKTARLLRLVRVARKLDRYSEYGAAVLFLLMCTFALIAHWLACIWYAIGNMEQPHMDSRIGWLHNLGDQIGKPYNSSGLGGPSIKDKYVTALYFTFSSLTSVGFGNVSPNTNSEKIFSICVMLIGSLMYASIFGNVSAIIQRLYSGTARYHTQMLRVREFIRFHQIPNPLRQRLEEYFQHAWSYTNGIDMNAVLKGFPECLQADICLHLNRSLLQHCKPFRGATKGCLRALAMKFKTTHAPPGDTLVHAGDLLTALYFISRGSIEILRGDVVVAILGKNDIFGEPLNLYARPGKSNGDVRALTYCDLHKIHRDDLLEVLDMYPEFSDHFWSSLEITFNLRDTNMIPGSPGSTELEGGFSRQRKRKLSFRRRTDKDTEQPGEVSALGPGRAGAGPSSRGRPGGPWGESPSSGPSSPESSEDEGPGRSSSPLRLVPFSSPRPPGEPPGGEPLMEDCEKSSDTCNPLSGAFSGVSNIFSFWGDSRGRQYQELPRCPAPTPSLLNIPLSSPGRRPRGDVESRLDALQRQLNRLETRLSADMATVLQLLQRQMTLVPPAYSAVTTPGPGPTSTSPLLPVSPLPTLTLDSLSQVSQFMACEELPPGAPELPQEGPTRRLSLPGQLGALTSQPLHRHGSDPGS
# test-method-notes: Inhibition of human ERG expressed in HEK293 cells at 10 uM by whole-cell patch clamp method relative to control
# Assay type: toxicity, cell-based
# assay-context: HEK293 cells that express hERG
assay-metric: inhibition at 10 µM
Enter the number, and then the unit.

// Cc1[nH]c(C(=O)Nc2nc3c(OC(C)C4CCNCC4)cc(C(=O)O)cc3s2)c(Cl)c1Cl (stereo unspecified) : inhibition at 10 µM value = 4.2%

* * *

# measured-target: DNA gyrase subunit A/DNA gyrase subunit B (Mycobacterium tuberculosis (strain ATCC 25618 / H37Rv), UniProt P9WG45+P9WG47)
# Sequence (P9WG45 whole entry): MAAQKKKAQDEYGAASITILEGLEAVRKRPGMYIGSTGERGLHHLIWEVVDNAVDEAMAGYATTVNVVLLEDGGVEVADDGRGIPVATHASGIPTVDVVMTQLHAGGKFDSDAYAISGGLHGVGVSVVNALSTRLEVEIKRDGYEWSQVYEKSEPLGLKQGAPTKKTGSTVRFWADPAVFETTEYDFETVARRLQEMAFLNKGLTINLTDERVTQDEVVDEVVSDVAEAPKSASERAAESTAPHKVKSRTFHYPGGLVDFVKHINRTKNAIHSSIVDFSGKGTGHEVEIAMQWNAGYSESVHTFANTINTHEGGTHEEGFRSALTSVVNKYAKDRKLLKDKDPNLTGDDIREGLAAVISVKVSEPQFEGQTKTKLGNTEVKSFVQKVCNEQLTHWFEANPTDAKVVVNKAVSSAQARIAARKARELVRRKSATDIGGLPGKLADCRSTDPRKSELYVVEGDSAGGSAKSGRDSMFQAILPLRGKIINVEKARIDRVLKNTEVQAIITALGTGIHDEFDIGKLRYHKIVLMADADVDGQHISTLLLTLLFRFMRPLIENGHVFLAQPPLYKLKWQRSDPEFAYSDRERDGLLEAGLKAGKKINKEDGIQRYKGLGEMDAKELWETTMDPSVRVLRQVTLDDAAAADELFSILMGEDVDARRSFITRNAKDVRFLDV
# Sequence (P9WG47 whole entry): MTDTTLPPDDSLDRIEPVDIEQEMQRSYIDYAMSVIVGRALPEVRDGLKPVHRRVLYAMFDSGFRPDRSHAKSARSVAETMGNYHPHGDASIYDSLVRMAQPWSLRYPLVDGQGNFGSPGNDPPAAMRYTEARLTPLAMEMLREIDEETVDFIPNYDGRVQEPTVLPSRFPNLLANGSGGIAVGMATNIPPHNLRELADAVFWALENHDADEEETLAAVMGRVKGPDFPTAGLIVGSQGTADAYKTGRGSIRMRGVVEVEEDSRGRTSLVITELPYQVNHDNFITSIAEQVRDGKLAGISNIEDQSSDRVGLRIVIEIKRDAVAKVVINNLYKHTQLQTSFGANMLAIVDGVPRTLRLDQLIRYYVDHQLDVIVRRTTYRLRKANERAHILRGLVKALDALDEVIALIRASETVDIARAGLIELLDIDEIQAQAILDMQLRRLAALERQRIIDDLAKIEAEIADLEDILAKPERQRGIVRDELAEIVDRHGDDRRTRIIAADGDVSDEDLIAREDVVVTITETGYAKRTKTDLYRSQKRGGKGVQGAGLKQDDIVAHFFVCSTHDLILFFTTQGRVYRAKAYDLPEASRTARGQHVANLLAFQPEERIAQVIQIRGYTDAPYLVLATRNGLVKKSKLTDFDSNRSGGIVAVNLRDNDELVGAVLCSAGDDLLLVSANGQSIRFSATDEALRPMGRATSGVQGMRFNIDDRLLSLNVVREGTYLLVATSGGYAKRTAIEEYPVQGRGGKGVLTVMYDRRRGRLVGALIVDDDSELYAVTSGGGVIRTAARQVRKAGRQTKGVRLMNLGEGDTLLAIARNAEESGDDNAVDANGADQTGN
# test-method-notes: Inhibition of Mycobacterium tuberculosis DNA gyrase using […] DNA as substrate incubated for 30 mins by gel based method
assay-metric: IC50 (nM)
Answers are plain numbers, in nM.

Measured IC50 of Cc1[nH]c(C(=O)Nc2nc3c(OC(C)C4CCNCC4)cc(C(=O)O)cc3s2)c(Cl)c1Cl (stereo unspecified) : 4.1

* * *

# test-method-notes: Inhibition of Mycobacterium tuberculosis DNA gyrase B
assay-metric: IC50

Dear reader, for each entry below, please note its IC50.
1. Cc1[nH]c(C(=O)Nc2nc3c(OCc4ccccc4)cc(C(=O)O)cc3s2)c(Cl)c1Cl
2. Cc1[nH]c(C(=O)Nc2nc3ccc(C(=O)O)cc3s2)c(Cl)c1Cl

["5.1 nM", "24.5 nM"]

* * *

# measured-target: DNA topoisomerase 2-alpha (Homo sapiens) (UniProt P11388)
# Sequence (P11388 whole entry): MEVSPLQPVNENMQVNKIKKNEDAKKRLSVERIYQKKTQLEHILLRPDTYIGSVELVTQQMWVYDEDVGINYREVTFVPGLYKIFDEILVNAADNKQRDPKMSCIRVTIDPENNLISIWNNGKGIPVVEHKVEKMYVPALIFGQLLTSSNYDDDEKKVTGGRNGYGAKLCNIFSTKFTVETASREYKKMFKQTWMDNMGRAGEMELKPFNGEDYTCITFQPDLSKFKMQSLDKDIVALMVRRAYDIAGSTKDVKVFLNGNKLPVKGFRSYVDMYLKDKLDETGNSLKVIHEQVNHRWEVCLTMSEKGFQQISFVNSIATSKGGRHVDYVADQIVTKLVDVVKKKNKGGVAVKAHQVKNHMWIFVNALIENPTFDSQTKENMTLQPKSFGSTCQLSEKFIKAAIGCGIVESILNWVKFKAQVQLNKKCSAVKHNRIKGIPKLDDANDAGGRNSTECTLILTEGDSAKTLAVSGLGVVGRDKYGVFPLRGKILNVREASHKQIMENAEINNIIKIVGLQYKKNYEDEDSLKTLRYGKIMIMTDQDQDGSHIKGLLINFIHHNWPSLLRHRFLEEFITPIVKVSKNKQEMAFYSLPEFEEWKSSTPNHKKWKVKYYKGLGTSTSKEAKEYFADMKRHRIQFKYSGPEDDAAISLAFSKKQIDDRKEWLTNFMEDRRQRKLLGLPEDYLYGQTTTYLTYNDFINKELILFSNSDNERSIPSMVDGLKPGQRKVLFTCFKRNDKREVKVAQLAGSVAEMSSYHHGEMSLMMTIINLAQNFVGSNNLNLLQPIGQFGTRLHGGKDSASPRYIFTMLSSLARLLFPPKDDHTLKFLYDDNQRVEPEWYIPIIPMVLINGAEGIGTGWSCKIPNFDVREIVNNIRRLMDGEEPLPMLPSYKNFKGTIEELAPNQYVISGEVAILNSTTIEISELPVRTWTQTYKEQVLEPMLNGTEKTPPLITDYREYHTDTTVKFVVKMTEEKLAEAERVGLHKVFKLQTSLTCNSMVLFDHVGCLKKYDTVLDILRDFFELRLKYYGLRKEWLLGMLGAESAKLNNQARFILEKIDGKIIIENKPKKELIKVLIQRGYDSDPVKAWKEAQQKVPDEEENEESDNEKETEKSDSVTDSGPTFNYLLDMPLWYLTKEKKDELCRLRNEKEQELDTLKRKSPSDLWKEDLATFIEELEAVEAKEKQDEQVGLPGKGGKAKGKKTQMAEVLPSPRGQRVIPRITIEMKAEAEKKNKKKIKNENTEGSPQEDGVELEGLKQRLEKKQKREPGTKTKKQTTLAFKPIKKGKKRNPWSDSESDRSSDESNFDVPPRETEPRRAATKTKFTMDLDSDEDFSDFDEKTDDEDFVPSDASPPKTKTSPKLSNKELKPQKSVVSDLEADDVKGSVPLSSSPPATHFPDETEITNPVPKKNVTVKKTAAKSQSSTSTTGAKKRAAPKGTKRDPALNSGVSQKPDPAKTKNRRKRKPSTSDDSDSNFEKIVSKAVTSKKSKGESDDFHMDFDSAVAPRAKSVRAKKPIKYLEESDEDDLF
# test-method-notes: Inhibition of human DNA topoisomerase II alpha assessed as residual activity at 10 uM using supercoiled pNO1 plasmid as substrate incubated for 30 mins by diamond dye staining based fluorescence microplate reader assay relative to control
assay-metric: Activity (%)
One number for each entry, in %.

>>> result("Cc1[nH]c(C(=O)Nc2nc3c(OC4CCNC4)cc(C(=O)O)cc3s2)c(Cl)c1Cl (centres undefined)")
102
>>> result("Cc1[nH]c(C(=O)Nc2nc3c(OC(C)C4CCNCC4)cc(C(=O)O)cc3s2)c(Cl)c1Cl (centres undefined)")
96
>>> result("Cc1[nH]c(C(=O)Nc2nc3c(OC(CN(C)C)c4ccccc4)cc(C(=O)O)cc3s2)cc1F (centres undefined)")
99

// next item, Activity requested
Query Cc1[nH]c(C(=O)Nc2nc3c(OC(CN4CCN(C)CC4)C4CC4)cc(C(=O)O)cc3s2)c(Cl)c1Cl (centres undefined) yields Activity of 99

* * *

# measured-target: DNA gyrase (Escherichia coli, UniProt P0AES4+P0AES6)
# test-method-notes: Inhibition of Escherichia coli DNA gyrase using relaxed pNO1 as substrate measured after 30 mins by SybrGOLD staining based fluorescence microplate reader analysis
pIC50: −log10 of the molar value.
assay-metric: pIC50

The compound Cc1[nH]c(C(=O)Nc2nc3c(OC(C)C4CCNCC4)cc(C(=O)O)cc3s2)c(Cl)c1Cl (stereo unspecified) showed pIC50 equal to > 8.00

* * *

# test-method-notes: Inhibition of Mycobacterium smegmatis DNA gyrase using […] DNA as substrate incubated for 30 mins by gel based method
# Parameters: species or system Mycolicibacterium smegmatis
assay-metric: IC50 (nM)
Numbers only, in nM.

Lab note: measured IC50 of Cc1[nH]c(C(=O)Nc2nc3c(OC(C)C4CCNCC4)cc(C(=O)O)cc3s2)c(Cl)c1Cl (stereo unspecified) was 5.7

* * *

# measured-target: DNA topoisomerase 2-alpha (Homo sapiens) (UniProt P11388)
# test-method-notes: Inhibition of human DNA topoisomerase II alpha assessed as residual activity at 100 uM using supercoiled pNO1 plasmid as substrate incubated for 30 mins by diamond dye staining based fluorescence microplate reader assay relative to control
I'd be grateful if you could share measured Activity for these entries.
Numbers only, in %.

Okay, here is my list. What is Activity for each of these?
1. Cc1[nH]c(C(=O)Nc2nc3c(OC(CN4CCN(C)CC4)C4CC4)cc(C(=O)O)cc3s2)c(Cl)c1Cl (centres undefined)
2. Cc1[nH]c(C(=O)Nc2nc3c(OC(CN(C)C)c4ccccc4)cc(C(=O)O)cc3s2)cc1F (centres undefined)
3. Cc1[nH]c(C(=O)Nc2nc3c(OC(C)C4CCNCC4)cc(C(=O)O)cc3s2)c(Cl)c1Cl (centres undefined)

1. 99
2. 99
3. 96

Cc1[nH]c(C(=O)Nc2nc3c(OC4CCNC4)cc(C(=O)O)cc3s2)c(Cl)c1Cl (centres undefined) yielded Activity of 102

* * *

# test-method-notes: Kinetic solubility of compound in PBS at 100 uM incubated for 20 hrs in shaker by LC-MS/MS analysis
# Format: physicochemical
# assay-context: read-out: Kinetic_solubility
assay-metric: solubility kinetic at 20 h, 100 µM (µM)
One number for each entry, in µM.

>>> result("Cc1[nH]c(C(=O)Nc2nc3c(OC(C)CN(C)C)cc(C(=O)O)cc3s2)c(Cl)c1Cl (configuration not stated)")
55

// sample Cc1[nH]c(C(=O)Nc2nc3c(OC(C)C4CCNCC4)cc(C(=O)O)cc3s2)c(Cl)c1Cl (configuration not stated) , its solubility kinetic at 20 h, 100 µM was 1

* * *

# System: Klebsiella pneumoniae
# test-method-notes: Antibacterial activity against Klebsiella pneumoniae ATCC10031 incubated for 18 hrs by serial broth microdilution method
# Type: functional
Give MIC90 for every item shown.
Numbers only, in µM.

>>> result("Cc1[nH]c(C(=O)Nc2nc3c(OC(C)CN(C)C)cc(C(=O)O)cc3s2)c(Cl)c1Cl (stereo unspecified)")
8
>>> result("Cc1[nH]c(C(=O)Nc2nc3c(OC(CN(C)C)c4ccccc4)cc(C(=O)O)cc3s2)cc1F (stereo unspecified)")
2
>>> result("Cc1[nH]c(C(=O)Nc2nc3c(OC(CN4CCN(C)CC4)C4CC4)cc(C(=O)O)cc3s2)c(Cl)c1Cl (stereo unspecified)")
7

API: the following record is the query input.
Hey, Klebsiella pneumoniae data for Cc1[nH]c(C(=O)Nc2nc3c(OC(CN4CCOCC4)C4CC4)cc(C(=O)O)cc3s2)cc1F (stereo unspecified) : MIC90 came out at 33

* * *

Would you mind telling me the reported MIC90 of each entry?
# Tested on: Enterobacter cloacae
# test-method-notes: Antibacterial activity against Enterobacter cloacae ATCC13047 incubated for 18 hrs by serial broth microdilution method
# Format: functional

Below, 3 molecules whose answers are already recorded.
>>> result("Cc1[nH]c(C(=O)Nc2nc3c(OC(CN4CCN(C)CC4)C4CC4)cc(C(=O)O)cc3s2)c(Cl)c1Cl (centres undefined)")
"> 116 µM"
>>> result("Cc1[nH]c(C(=O)Nc2nc3c(OC(C)CN(C)C)cc(C(=O)O)cc3s2)c(Cl)c1Cl (centres undefined)")
"> 135 µM"
>>> result("Cc1[nH]c(C(=O)Nc2nc3c(OC(CN4CCOCC4)C4CC4)cc(C(=O)O)cc3s2)cc1F (centres undefined)")
"> 131 µM"

Briefly, MIC90 measured for Cc1[nH]c(C(=O)Nc2nc3c(OC(CN(C)C)c4ccccc4)cc(C(=O)O)cc3s2)cc1F (centres undefined) : > 133 µM
